Tested On: recombinant human plasminogen activator inhibitor-1 (PAI-1) (Homo sapiens, UniProt P05121)
Construct: purchased Molecular Innovations, Royal Oak, Mich
Sequence (P05121 24-402): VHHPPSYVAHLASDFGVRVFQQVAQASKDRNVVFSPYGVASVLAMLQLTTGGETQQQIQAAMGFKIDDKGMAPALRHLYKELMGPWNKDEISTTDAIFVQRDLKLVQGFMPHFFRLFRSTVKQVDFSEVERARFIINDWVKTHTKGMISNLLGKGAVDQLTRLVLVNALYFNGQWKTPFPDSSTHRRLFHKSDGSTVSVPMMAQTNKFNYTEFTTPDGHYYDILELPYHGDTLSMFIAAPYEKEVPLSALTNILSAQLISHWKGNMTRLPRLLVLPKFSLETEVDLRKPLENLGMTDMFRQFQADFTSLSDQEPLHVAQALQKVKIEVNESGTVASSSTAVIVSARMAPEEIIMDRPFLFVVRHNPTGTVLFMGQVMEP
Experimental Protocol: Primary Screen for the PAI-1 Inhibition (residual tPA activity, chromogenic substrate Spectrozyme-tPA)
Format: biochemical
Study Conditions: 100 μM test compound; 140 nM PAI-1, 70 nM tPA, pH 6.6
Procedure: Test compounds are dissolved in DMSO at a final concentration of 10 mM, then diluted 101× in physiologic buffer. […] Following the second incubation, Spectrozyme-tPA (American Diagnostica, Greenwich, Conn.), a chromogenic substrate for tPA, is added and absorbance read at 405 nm at 0 and 60 minutes. […]
Criterion: inhibition at 100 µM meeting or surpassing 70%. Met: Yes. Not met: No.

Example cases with answers are listed next.
# Compound, Answer Label
measured = [
    ("O=C(Nc1ccc(-c2ccc(OC(Cc3ccccc3)C(=O)O)cc2)cc1)c1cc(-c2ccccc2Cl)oc1C(F)(F)F (stereo not shown)", "Yes"),
    ("O=C(O)C(Cc1ccccc1)Oc1cccc(-c2ccc(NC(=O)C3(c4ccccc4)CCCC3)cc2)c1 (stereo not shown)", "Yes"),
    ("O=C(O)C(Cc1ccccc1)Oc1cccc(-c2ccc(NC(=O)C3(c4ccc(Cl)cc4)CC3)cc2)c1 (stereo not shown)", "Yes"),
    ("O=C(Nc1ccc(-c2ccc(OC(Cc3ccccc3)C(=O)O)cc2)cc1)c1ccc(-c2ccc(Cl)cc2)o1 (stereo not shown)", "No"),
    ("O=C(Nc1ccc(-c2cccc(OC(Cc3ccccc3)C(=O)O)c2)cc1)c1ccc(Oc2ccccc2)cc1 (stereo not shown)", "No"),
]

Quick check: does O=C(O)C(Cc1ccccc1)Oc1cccc(-c2ccc(NC(=O)C3(c4cccc(F)c4)CCCC3)cc2)c1 (stereo not shown) have inhibition at 100 µM greater than or equal to 70%?
Yes

In plain terms: is recorded inhibition at 100 µM at least 70% for Cc1nn(Cc2ccc(C(=O)Nc3ccc(-c4cccc(OC(Cc5ccccc5)C(=O)O)c4)cc3)o2)c(C)c1Br (stereo not shown) ?
No

Decide: is the reported value of inhibition at 100 µM for O=C(Nc1ccc(-c2ccc(OC(Cc3ccccc3)C(=O)O)cc2)cc1)c1ccc(Oc2ccccc2)cc1 (stereo not shown) equal to or greater than 70%?
No
